- Tested target: Grb2 SH2 (UniProt P62993)
- Sequence (P62993 whole entry, looked up, the tested form may be a part): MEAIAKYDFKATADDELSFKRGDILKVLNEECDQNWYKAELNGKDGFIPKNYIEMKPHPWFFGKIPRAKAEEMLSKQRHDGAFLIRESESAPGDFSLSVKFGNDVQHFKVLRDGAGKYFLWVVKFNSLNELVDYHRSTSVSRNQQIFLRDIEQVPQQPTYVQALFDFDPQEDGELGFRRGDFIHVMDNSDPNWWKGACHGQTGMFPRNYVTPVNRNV
- Experimental protocol: SH2 binding enrichment of the phosphorylated peptide, bacterial display (enrichment ratio); higher = better substrate or ligand; peptides without Tyr show the background;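 further: peptide library displayed on the E. coli surface as eCPX fusions, selected cells deep-sequenced, score is each peptide's frequency after selection divided by its frequency in the input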
Answer N if SH2 binding enrichment is under 1, and Y if it is 1 or more.

Here's what some known entries look like.
PVQAAYQKVVD [HBB_Y131_A136D]; Y
LEFAKYGSLRG [RET_Y809_V804L_YF]; N
DPLASYLDKVR [KRT10_Y160_R156P]; N
HAVYVYDICHV [TWNK_Y508]; N
IHTEFYDGLFP [BCR_Y561_K558T]; N
LDMSQYFRLFN [CPT2_Y217]; Y
PLQKTYNYNML [SLC4A1_Y553_V557M]; N
HRAVEYLLMGI [RAD23A_Y197_T200M]; Y
NPIGLYSAEIL [LDB3_Y202_T206I]; N
AELKLYSGAQT [ZAP70_Y178_R175L]; N

Does SH2 binding enrichment meet or surpass 1 for EFSNQYKATIG [RAB7A_Y37_K32E] ?
N

Please check the record KLADMYGGGED [CDH1_Y876] and state if its SH2 binding enrichment is at or above 1.
N

# check: SH2 binding enrichment of VKPENYRRLDI [VHL_Y175] is greater than or equal to 1
N

API: above_or_equal(metric=SH2 binding enrichment, cutoff=1) for item RVGVDYEGGGC [PLOD1_Y675]
Y

Reported SH2 binding enrichment at or above 1? AHDGEYGAEAL [HBA1_Y25_A22D]
N

Is SH2 binding enrichment for FQKDVYDIPPS [NEDD9_Y177_YF] at or above 1?
N
